Hello, the source for this data is the Human Domainome abundance scans (Beltran et al. 2025), in case you need it.

B1: Ankyrin-1, residues 1405 to 1484; numbered along this chain, P16157 (parent)
chain: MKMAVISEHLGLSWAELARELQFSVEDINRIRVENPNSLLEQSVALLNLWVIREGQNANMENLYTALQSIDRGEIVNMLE

Variants of: B1
experimentNotes: abundance fitness (aPCA) (normalised: wild type 0, dead -1); higher = more abundant; growth selection in yeast, the domain comes from the species named
experimentalContext: Homo sapiens
Would you kindly list abundance fitness for each of these variants?

Sample MKMAVISEHLGLSWAELARELQFSVEDINRIRVENPNSLLSQSVALLNLWVIREGQNANMENLYTALQSIDRGEIVNMLE [E41S] — what was its abundance fitness?
-0.005

State the recorded abundance fitness for this entry: MKMAVISEHLGLSWAELARELQFSVEDINRIRVENPNSLLEQSVALLNLWVIREGQNANMENLYTALQSIDRSEIVNMLE [G73S]
-0.192

Given the variant MKMAVISEHLGLSWAELARELQFSVEDINRINVENPNSLLEQSVALLNLWVIREGQNANMENLYTALQSIDRGEIVNMLE [R32N] , what is its reported abundance fitness?
-0.369

Any idea what its abundance fitness is? The variant is MKMAVISEHLGLSWAELARELQFSVEDINRIRVENPNSLLEQSVALLLLWVIREGQNANMENLYTALQSIDRGEIVNMLE [N48L]
-0.835

Quick one: abundance fitness of MKMAVISEHLGLSWAELARELQFSVEDINRIRVENPNSLLEQSVALLNLWHIREGQNANMENLYTALQSIDRGEIVNMLE [V51H] ?
0.026

Look up abundance fitness: MKMAVISEHLGLSWAELARELQFSVEDINRIRVENPNSLLEQSVALLNLWVIREGQNANMENLYTALQSIDDGEIVNMLE [R72D]
-0.683

So what does the record say about abundance fitness for MKMAVISEHLGLSWAELARELQFSVEDINRIRVENPNSLLEQSVALLNLWVIREGQNAHMENLYTALQSIDRGEIVNMLE [N59H] ?
-0.376

Need abundance fitness of MKMAVISEHLGLSWAELARELQFSVEDINRIRVENPNSLLEQSVALLNLWVIREGQNANMENLYTILQSIDRGEIVNMLE [A66I] , thanks.
-0.564

For MKMAVISEHLGLSWAELARELQFSVEDINRIRVENPNSLLVQSVALLNLWVIREGQNANMENLYTALQSIDRGEIVNMLE [E41V] , what is its reported abundance fitness?
-0.467

Requested read-out: abundance fitness. Entry: MKMAVISEHLGLSWAELARELQFSVEDINRIRVENPNSLLCQSVALLNLWVIREGQNANMENLYTALQSIDRGEIVNMLE [E41C]
-0.173
